# Target entity: β2AR^∆C::V2R^∆N::H^mut / β-arrestin::N^mut (Homo sapiens)
# Test summary: GPCR/β-arrestin interaction rewired via TCS
Outcome measure: pEC50
Scale for pEC50: -log10 of concentration given in mol/L; no unit attached.

*Q* Give its pEC50 value. Item: CCC(NC(C)C)C(O)c1ccc(O)c2[nH]c(=O)ccc12 (stereo not shown) [Procaterol]
*A* 8.30
